The reported measurements were obtained from patent US20220177560A1.

Biological target: T1, HU-3pE-beta-Amyloid (human)
T1 construct: also called the peptide
T1 sequence (P05067 674-699): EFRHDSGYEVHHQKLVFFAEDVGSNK
Test: SPR (per Example 5); antigen peptide not given
Endpoint name: Kd (nM)
Your answer is read as nM, so omit the unit and give the number.

A selection of reference data follows.
BAMB612 (antibody, human IgG1, kappa, V domains shown, HFA variant of BAMB31, human IgG1) VH: QVQLVQSGAEVKKPGASVKVSCKASGHVFTSYDMYWVRQSPGQGLEWIGYIDSDNGDTSYNQKFKGRVTLTVDTSTSTVYMELSSLRSEDTAVYYCAYYRYAMDYWGQGTLVTVSS VL: DVVMTQSPLSLPVTLGQPASISCKSSQSLLDSRAKTYLTWLQQRPGQSPRRLIYLVSKLDSGVPDRFSGSGSGTDFTLKISRVEAEDVGVYYCWQGTHFPYTFGGGTKLEIKR = 0.0117
BAMB611 (antibody, human IgG1, kappa, V domains shown, Human framework adapted (HFA) variant of BAMB31, human IgG1) VH: QVQLVQSGAEVKKPGASVKVSCKASGHVFTSYDMYWVRQAPGQGLEWMGYIDSDNGDTSYNQKFKGRVTMTVDTSTSTVYMELSSLRSEDTAVYYCAYYRYAMDYWGQGTLVTVSS VL: DVVMTQSPLSLPVTLGQPASISCKSSQSLLDSNGKTYLTWFQQRPGQSPRRLIYLVSKLDSGVPDRFSGSGSGTDFTLKISRVEAEDVGVYYCWQGTHFPYTFGGGTKLEIKR = 1.52

Moving on to another binder below.
input: Tell me the measured Kd of BAMB623 (antibody, human IgG1, kappa, V domains shown, HFA variant of BAMB31, human IgG1) VH: QVQLVQSGAEVKKPGASVKVSCKASGHVFTSYDMYWVRQAPGQSLEWIGYIDSDNGDTSYNQKFKGKATMTVDTSTSTVYMELSSLRSEDTAVYYCAYYRYAMDYWGQGTLVTVSS VL: DVVMTQSPLSLPVTLGQPASISCKSSQSLLDSRAKTYLTWLQQRPGQSPRRLIYLVSKLDSGVPDRFSGSGSGTDFTLKISRVEAEDVGVYYCWQGTHFPYTFGGGTKLEIKR , please.
output: 0.0183
